- METHOD SUMMARY: Bioavailability in Sprague-Dawley rat at 1 mg/kg, iv and 4 mg/kg, po
- Type: ADME, organism-based
- RECORDED CONDITIONS: in vivo
ENDPOINT: bioavailability (%)
Answers are plain numbers, in %.

### Prompt Report bioavailability for CC(=O)NC(C)(C)[C@@H]1CC2(CCN(C(=O)[C@@H]3CN(C(C)(C)C)C[C@H]3c3ccc(F)cc3F)CC2)c2cc(Cl)c(C)cc21 please.
### Response 33

---

- ASSAYED TARGET: UniProt P32244
- Sequence (P32244 whole entry): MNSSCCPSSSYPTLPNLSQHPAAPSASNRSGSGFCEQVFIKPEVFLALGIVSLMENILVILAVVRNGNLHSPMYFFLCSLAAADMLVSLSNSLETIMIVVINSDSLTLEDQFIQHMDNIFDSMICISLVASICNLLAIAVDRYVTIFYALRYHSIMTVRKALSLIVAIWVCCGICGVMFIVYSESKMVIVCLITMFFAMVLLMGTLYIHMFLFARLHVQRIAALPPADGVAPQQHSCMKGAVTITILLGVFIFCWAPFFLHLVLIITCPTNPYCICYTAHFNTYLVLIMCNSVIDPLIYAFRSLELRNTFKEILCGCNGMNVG
- METHOD SUMMARY: Agonist activity at rat MC3R expressed in CHO cells assessed as stimulation of intracellular cAMP accumulation
ENDPOINT: EC50 (nM)
Answers are plain numbers, in nM.

### Prompt State the recorded EC50 for this entry: CC(=O)NC(C)(C)[C@@H]1CC2(CCN(C(=O)[C@@H]3CN(C(C)(C)C)C[C@H]3c3ccc(F)cc3F)CC2)c2cc(Cl)c(C)cc21
### Response 997
